Just for reference, ChEMBL document CHEMBL3351287 is where these values come from.

Test system: A549
Assay: Induction of apoptosis in human A549 cells assessed as increase in hypodiploid sub-G1 DNA fraction at 10 uM after 24 hrs by propidium iodide-based flow cytometric analysis (reference value: 3 %)
Format: functional
# Activity per record follows
Give the number; % is assumed, so skip it.

- CC1(C)CCC[C@]2(C)O[C@]3(/C=C/c4ccccc4F)C=CC12OO3 (mixture of isomers): 74.8
- COc1ccc(/C=C/[C@@]23C=CC4(OO2)C(C)(C)CCC[C@]4(C)O3)c(OC)c1OC (mixture of isomers): 74.7
- CC1(C)CCC[C@]2(C)O[C@]3(/C=C/c4ccccc4Cl)C=CC12OO3 (mixture of isomers): 61
- CC1(C)CCC[C@]2(C)O[C@]3(/C=C/c4ccccc4Br)C=CC12OO3 (mixture of isomers): 78.2
- COc1ccccc1/C=C/[C@@]12C=CC3(OO1)C(C)(C)CCC[C@]3(C)O2 (mixture of isomers): 83

Notebook: CC1(C)CCC[C@]2(C)O[C@]3(/C=C/c4cccc5ccccc45)C=CC12OO3 (mixture of isomers) , Activity read as 80.3
